RECORDED_ENDPOINT: melting point

Dear colleague, could you send me melting point for each of the items below? Thanks.
1. O=c1[nH]c2ncc(-c3ccc4cc[nH]c4c3)nc2n1CC1CCCCC1
2. Cc1cc(-c2nc[nH]n2)ccc1-c1cnc2[nH]c(=O)n(CCC3CCOCC3)c2n1
3. Cc1cc(O)ccc1-c1cnc2[nH]c(=O)n(CC3CCCCC3)c2n1
4. Cl.O=c1[nH]c2ncc(-c3ccc(O)cc3)nc2n1CC1CCCN1 (centres unmarked)

359 to 363 °C
258 to 260 °C
212 to 214 °C
178 to 180 °C

Dear colleague, could you send me melting point for each of the items below? Thanks.
1. CC(C)(O)c1ccc(-c2cnc3[nH]c(=O)n(CC4CCCCC4)c3n2)cc1
2. O=c1[nH]c2ncc(-c3ccc(-c4nc5ccccc5[nH]4)cc3)nc2n1CC1CCOCC1
3. O=c1[nH]c2ncc(-c3cncnc3)nc2n1CC1CCCCC1
4. O=c1[nH]c2ncc(-c3ccncc3)nc2n1CC1CCCCC1

["226 to 228 °C", "> 300 °C", "> 260 °C", "267 to 269 °C"]

###

RECORDED_ENDPOINT: melting point

Example entries and their recorded answers appear below.
                                   molecule         result
0  Cc1cc(C(=O)O)ccc1-c1cnc2[nH]c(=O)n(CC3CCCCC3)c2n1 [Compound 141]  244 to 247 °C
1  O=C1CCC(Cn2c(=O)[nH]c3ncc(-c4ccc(O)cc4)nc32)N1 (stereo not shown) [Compound 198]  338 to 340 °C

Dear colleague, could you send me melting point for each of the items below? Thanks.
1. O=c1[nH]c2ncc(-c3cnc4[nH]cnc4c3)nc2n1CC1CCOCC1 [Compound 190]
2. O=c1[nH]c2ncc(-c3ccc(O)cc3)nc2n1CCc1ccccc1 [Compound 121]

1: 367 to 370 °C; 2: 283 to 284 °C

###

Each entry below carries its measured pIC50, system: mTOR (Homo sapiens).
pIC50: −log10 of the molar value.

Example entries and their recorded answers appear below.
>>> df
                                   compound  recorded_endpoint        result
0  CC(C)Cn1c(=O)[nH]c2ncc(-c3ccc(O)cc3)nc21 [Compound 89]              pIC50  5.30 to 7.00
1  O=c1[nH]c2ncc(-c3cccc4ncccc34)nc2n1[C@@H](CO)c1ccccc1 [Compound 40]              pIC50  4.70 to 5.00

Dear colleague, could you send me pIC50 for each of the items below? Thanks.
1. O=c1[nH]c2ncc(-c3ccc(O)cc3)nc2n1CC1CCCC1 [Compound 87]
2. CC(c1ccccc1F)n1c(=O)[nH]c2ncc(-c3cccc4ncccc34)nc21 (stereo not drawn) [Compound 51]
3. CC(c1ccccc1)n1c(=O)oc2ncc(-c3cccc4ncccc34)nc21 (stereo not drawn) [Compound 86]
4. C[C@H](c1ccccc1)n1c(=O)[nH]c2ccc(-c3cccc4ncccc34)nc21 [Compound 27]

1: 5.30 to 7.00; 2: 5.00 to 5.29; 3: < 4.52; 4: < 4.52

###

Each entry below carries its measured pIC50, system: PKCθ (Homo sapiens, UniProt Q04759).
Sequence (Q04759 whole entry): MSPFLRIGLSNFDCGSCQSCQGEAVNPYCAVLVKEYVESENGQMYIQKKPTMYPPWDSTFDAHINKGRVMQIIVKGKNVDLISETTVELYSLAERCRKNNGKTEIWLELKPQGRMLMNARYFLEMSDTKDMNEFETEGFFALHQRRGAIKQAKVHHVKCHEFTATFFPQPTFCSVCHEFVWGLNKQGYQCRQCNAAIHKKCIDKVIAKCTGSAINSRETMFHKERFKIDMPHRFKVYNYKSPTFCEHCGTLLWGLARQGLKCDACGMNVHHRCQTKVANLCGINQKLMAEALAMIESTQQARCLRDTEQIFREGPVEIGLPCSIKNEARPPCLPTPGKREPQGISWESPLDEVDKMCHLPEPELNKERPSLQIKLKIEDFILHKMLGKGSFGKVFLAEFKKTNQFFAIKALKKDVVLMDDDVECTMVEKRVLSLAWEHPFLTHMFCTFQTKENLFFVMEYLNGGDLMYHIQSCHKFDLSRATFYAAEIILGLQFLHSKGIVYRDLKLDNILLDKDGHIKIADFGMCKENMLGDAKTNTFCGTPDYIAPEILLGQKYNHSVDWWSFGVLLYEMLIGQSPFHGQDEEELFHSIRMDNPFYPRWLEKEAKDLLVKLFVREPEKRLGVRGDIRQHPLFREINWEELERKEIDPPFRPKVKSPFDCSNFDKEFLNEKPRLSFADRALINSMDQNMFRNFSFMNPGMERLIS
pIC50: −log10 of the molar value.

Example entries and their recorded answers appear below.
In [3]: df
Out[3]:
                                   compound  result
0  O=c1[nH]c2ncc(-c3cccc4ncccc34)nc2n1CC1CCNCC1  < 4.52
1  COc1ccc(C(C)C)cc1-c1cnc2[nH]c(=O)n(C3CCCC3)c2n1  < 4.52
2  CC[C@@H](c1ccccc1)n1c(=O)[nH]c2ncc(-c3cccc4ncccc34)nc21  < 4.52
3  CC(C)[C@H](CO)n1c(=O)[nH]c2ncc(-c3cccc4ncccc34)nc21  < 4.52

Dear colleague, could you send me pIC50 for each of the items below? Thanks.
1. COc1ccc(C(C)C)cc1-c1cnc2[nH]c(=O)n([C@@H](C)C(C)C)c2n1
2. O=c1[nH]c2ncc(-c3cccc4ncccc34)nc2n1C1CCC(CO)CC1 (stereo not drawn)
3. COc1ccc(C(C)C)cc1-c1cnc2[nH]c(=O)n(CC3CC3)c2n1
4. COc1ccc(C(C)C)cc1-c1cnc2[nH]c(=O)n(C3CCCOC3)c2n1 (stereo not drawn)
5. COc1ccc(C(C)C)cc1-c1cnc2[nH]c(=O)n([C@H](CO)C(C)C)c2n1
6. O=c1[nH]c2ncc(-c3cccc4ncccc34)nc2[nH]1
7. Cc1nc2[nH]c(=O)n([C@@H](C)c3ccccc3)c2nc1-c1cccc2ncccc12
8. O=c1[nH]c2ncc(-c3cccc4ncccc34)nc2n1C1CCC(O)CC1 (stereo not drawn) [Compound 59]

4.52 to 4.70
4.52 to 4.70
< 4.52
4.70 to 5.00
5.30 to 7.00
< 4.52
< 4.52
4.70 to 5.00

Dear colleague, could you send me pIC50 for each of the items below? Thanks.
1. CC(c1ccccc1)n1c(=O)[nH]c2ccc(-c3cccc4ncccc34)nc21 (stereo not drawn)
2. COc1cccc(Cn2c(=O)[nH]c3ncc(-c4cccc5ncccc45)nc32)c1
3. C[C@@H](c1ccccc1)n1c(=O)[nH]c2ncc(-c3cccc4ncccc34)nc21

["5.00 to 5.29", "< 4.52", "< 4.52"]

Dear colleague, could you send me pIC50 for each of the items below? Thanks.
1. COc1ccc(C(C)C)cc1-c1cnc2[nH]c(=O)n(C3CCOCC3)c2n1
2. COc1ccc(C(C)C)cc1-c1cnc2[nH]c(=O)n(CC(C)C)c2n1
3. C[C@@H](c1ccccc1)n1c(=O)n(C)c2ncc(-c3cccc4ncccc34)nc21

1. < 4.52
2. < 4.52
3. < 4.52

###

Would you mind telling me the reported melting point of each entry?

>>> df
                                   compound         result
0  O=c1[nH]c2ncc(-c3ccc(O)cc3)nc2n1CC1CCCCC1  302 to 303 °C
1  O=c1[nH]c2ncc(-c3ccc(O)nc3)nc2n1CC1CCCCC1       > 400 °C
2  O=c1[nH]c2ncc(-c3ccc(-c4n[nH]c(CO)n4)cc3)nc2n1CC1CCOCC1  258 to 260 °C
3  O=c1[nH]c2ncc(-c3ccc(-c4nnc[nH]4)cc3)nc2n1CCN1CCOCC1  295 to 297 °C
4  COc1cccc(CN2CC(=O)Nc3ncc(-c4ccc(O)cc4)nc32)c1  282 to 283 °C

Dear colleague, could you send me melting point for each of the items below? Thanks.
1. O=c1[nH]c2ncc(-c3ccc(O)cc3)nc2n1CCO
2. O=c1[nH]c2ncc(-c3cccc(-c4nc[nH]n4)c3)nc2n1CC1CCCCC1

1: 308 to 310 °C; 2: 305 to 307 °C

Dear colleague, could you send me melting point for each of the items below? Thanks.
1. O=c1[nH]c2ncc(-c3ccc4[nH]cnc4c3)nc2n1CCC1CCOCC1
2. CC(C)c1nc(-c2ccc(-c3cnc4[nH]c(=O)n(CC5CCOCC5)c4n3)cc2)n[nH]1

1. 264 to 265 °C
2. 305 to 308 °C

Dear colleague, could you send me melting point for each of the items below? Thanks.
1. COCCCn1c(=O)[nH]c2ncc(-c3ccc(O)cc3)nc21
2. NCc1nc(-c2ccc(-c3cnc4[nH]c(=O)n(CCC5CCOCC5)c4n3)cc2)n[nH]1
3. O=C(O)c1ccc(-c2cnc3[nH]c(=O)n(CC4CCCCC4)c3n2)cc1
4. O=c1[nH]c2ncc(-c3ccc(-n4ccnn4)cc3)nc2n1CC1CCCCC1
5. CC(c1ccccc1)n1c(=O)[nH]c2ncc(-c3ccnc4ccccc34)nc21 (centres unmarked)
6. O=c1[nH]c2ncc(-c3ccc(O)cc3)nc2n1CC1CCCO1 (centres unmarked)

1: 208 to 210 °C; 2: 258 to 260 °C; 3: > 350 °C; 4: 276 to 278 °C; 5: 252 to 254 °C; 6: 256 to 258 °C

Dear colleague, could you send me melting point for each of the items below? Thanks.
1. COc1ccccc1-n1c(=O)[nH]c2ccc(-c3cccc(O)c3)nc21
2. O=c1[nH]c2ncc(-c3ccc4[nH]ccc4c3)nc2n1CC1CCCCC1

1: 240 to 242 °C; 2: 343 to 346 °C

Origin of the recorded values: patent US7981893B2
